- Tested on: Escherichia coli ATCC 8739
recorded-endpoint: MIC

Some molecules with known MIC results, for comparison:
* CSCC[C@H](N)C(=O)N[C@@H](C)C(=O)N[C@@H](CCCN=C(N)N)C(=O)N[C@@H](CC(N)=O)C(=O)N[C@@H](CCCCN)C(=O)N1CCC[C@H]1C(=O)N[C@@H](CC(C)C)C(=O)NCC(=O)N[C@@H](CCCCN)C(=O)N[C@@H](CCCCN)C(=O)N[C@@H](CC(C)C)C(=O)N[C@@H](CCCN=C(N)N)C(=O)N[C@@H](CC(C)C)C(=O)N[C@@H](C)C(=O)N[C@@H](C)C(=O)N[C@@H](C)C(=O)N[C@@H](Cc1ccccc1)C(=O)N[C@@H](CCCCN)C(=O)O [MARNKPLGKKLRLAAAFK] | ≥ 127 µM
* CSCC[C@H](N)C(=O)N[C@@H](CCCCN)C(=O)N[C@@H](CCCCN)C(=O)N[C@@H](CC(C)C)C(=O)N[C@@H](Cc1ccccc1)C(=O)N[C@@H](C)C(=O)N[C@@H](C)C(=O)N[C@@H](CC(C)C)C(=O)N[C@@H](C)C(=O)N[C@@H](CC(C)C)C(=O)N[C@@H](C)C(=O)N[C@@H](C)C(=O)N[C@H](C(=O)N[C@H](C(=O)N[C@@H](C)C(=O)N1CCC[C@H]1C(=O)N[C@H](C(=O)N[C@@H](Cc1c[nH]c2ccccc12)C(=O)O)C(C)C)C(C)C)C(C)C [MKKLFAALALAAVVAPVW] | ≥ 135 µM
* CC[C@H](C)[C@H](NC(=O)[C@@H](NC(=O)[C@H](CO)NC(=O)[C@H](C)NC(=O)[C@@H](NC(=O)[C@H](CCCCN)NC(=O)[C@H](CCCCN)NC(=O)[C@@H](NC(=O)[C@@H](NC(=O)[C@H](C)NC(=O)[C@H](Cc1ccccc1)NC(=O)[C@H](CC(C)C)NC(=O)CN)C(C)C)[C@@H](C)CC)C(C)C)C(C)C)C(=O)NCC(=O)O [GLFAVIKKVASVIG] | ≥ 45.7 µM

Next up:
Please list MIC recorded for the molecule CC(C)C[C@H](NC(=O)[C@H](CCCCN)NC(=O)[C@H](CCCCN)NC(=O)[C@H](CCCN=C(N)N)NC(=O)[C@H](CCCN=C(N)N)NC(=O)[C@H](CO)NC(=O)[C@H](CCC(N)=O)NC(=O)[C@H](Cc1ccc(O)cc1)NC(=O)[C@H](Cc1ccccc1)NC(=O)[C@H](CCC(N)=O)NC(=O)[C@H](CO)NC(=O)[C@H](CCC(=O)O)NC(=O)[C@H](CCCN=C(N)N)NC(=O)[C@@H](N)CC(N)=O)C(=O)N[C@@H](CO)C(=O)N[C@@H](CO)C(=O)N[C@@H](CCC(N)=O)C(=O)N[C@H](C(=O)O)C(C)C [NRESQFYQSRRKKLSSQV]
≥ 114 µM

* * *

- Test system: Escherichia coli ATCC 2592
recorded-endpoint: MIC
Field note: include the unit after the figure.

Please list MIC recorded for the molecule "CC[C@H](C)[C@H](NC(=O)[C@H](CCCCN)NC(=O)[C@@H]1CCCN1C(=O)[C@H](CC(C)C)NC(=O)[C@H](Cc1ccccc1)NC(=O)[C@H](CC(N)=O)NC(=O)[C@H](C)NC(=O)[C@H](C)NC(=O)[C@H](CC(C)C)NC(=O)CN)C(=O)N[C@@H](Cc1ccccc1)C(=O)N[C@@H](CS)C(=O)N[C@@H](CCCCN)C(=O)N[C@H](C(=O)N[C@H](C(=O)N[C@@H](CCCN=C(N)N)C(=O)N[C@@H](CCCCN)C(=O)N[C@@H](CS)C(N)=O)[C@@H](C)O)[C@@H](C)CC"
12.4 µM

# credit: DBAASP
